Kindly supply the reported growth values for the records listed here.
# System: TK-10 renal
# test-method-notes: NCI-60 one-dose screen, 48 h (100 = growth as untreated, 0 = no growth, -100 = all killed)
# measurement-conditions: 10 µM unless noted
About 83,000 compounds went through this panel and 20% of them were active in at least one assay; those are over-represented in the sample as a whole. Active and inactive are the calls of the source. How the source made its calls: active means growth percent below 10; inactive means the rest.

Exercise: Output reported growth of the molecule `COc1cnc2c(c1)C(=O)c1c-2n(CCCNCCN2CCOCC2)c(=O)c2cc([N+](=O)[O-])ccc12` on TK-10 renal.
Solution: -0.695% (active)

Exercise: Using TK-10 renal as the test system, report measured growth of `Oc1cc(/C=C/c2nc(N3CCOCC3)c3cc(Cl)c(Cl)cc3n2)cc(O)c1O` .
Solution: 95.8% (inactive)

Exercise: Enter measured growth, system TK-10 renal, for the molecule shown: `NCCn1cc(-c2nc(-c3c[nH]c4ncccc34)cs2)c2cc(Br)ccc21`
Solution: 149% (inactive)

Exercise: Report growth under test system TK-10 renal for `O=Cc1nc2ccccc2[nH]1` .
Solution: 97% (inactive)

Exercise: Param request: growth | system TK-10 renal | item `COc1ccc(/C=C/C(=O)c2ccc([N+](=O)[O-])cc2)cc1`
Solution: 101% (inactive)

Exercise: With TK-10 renal as the test system, provide measured growth for this molecule: `COc1ccc2c(c1)c1nc3cc(C)c(C)cc3nc1n2CCN(C)C`
Solution: 39.3% (inactive)

Exercise: Specify the recorded growth for `CCCCCCCC(=O)SCC/C=C/[C@@H]1CC(=O)NCc2cccc(n2)CN(Cc2ccc3ccccc3c2)CC(=O)N[C@@H](C(C)C)C(=O)O1` , system: TK-10 renal.
Solution: 21.6% (inactive)

Exercise: Recall the reported growth of `COc1ccc(C(=O)c2ccc(C)cc2)c(OC)c1OC` when tested on TK-10 renal.
Solution: 97.7% (inactive)

Exercise: Report growth from TK-10 renal testing of `Cc1cc(C)nc(NC(N)=NCCc2ccccc2)n1`
Solution: 75.6% (inactive)

Exercise: Identify measured growth obtained with TK-10 renal for `c1ccc(-c2nc(Nc3ccc(-c4nc5ccccc5[nH]4)cc3)nc(N3CCOCC3)n2)cc1` .
Solution: -58.1% (active)

Exercise: Give measured growth for `COC(c1ccccc1)(c1ccccc1)c1ccccc1` (TK-10 renal).
Solution: 123% (inactive)

Exercise: # return growth for `COc1ccc(O)c(-c2cc(-c3ccc(Cl)cc3)c(C#N)c(=O)[nH]2)c1` , test system: TK-10 renal
Solution: 87.3% (inactive)

Exercise: Please report the measured growth for `C=C(C)[C@@H]1CC[C@]2(C)[C@H](CC=C3[C@@H]4CC(C)(C)CC[C@]4(C(=O)OC)CC[C@]32C)[C@@]1(C)CC/C(N)=N/O` tested on TK-10 renal.
Solution: 67.9% (inactive)

Exercise: Please indicate recorded growth of `C=COCCCCCCCCCCCCCCCCCC` measured with TK-10 renal.
Solution: 101% (inactive)

Exercise: Using TK-10 renal as the test system, report measured growth of Nc1nc(Br)nc2c1ncn2C1CC(O)C(CO)O1 (stereo not drawn) .
Solution: 71.2% (inactive)

Exercise: Give growth; test system TK-10 renal; molecule `O=S(=O)(NCCNc1cc(-c2cn(-c3ccccc3)nc2-c2cccc(O)c2)ccn1)c1ccccc1`
Solution: 67.1% (inactive)

Exercise: Write down the reported growth (system: TK-10 renal) of `Cc1ccc(Nc2c(C(N)=O)cnc3ccc(S(=O)(=O)Nc4cc(C)on4)cc23)cc1`
Solution: 118% (inactive)

Exercise: Consider the molecule `COc1ccc(-c2cc(-c3c(C)oc4cc5occc5c(OC)c4c3=O)nc(N)c2C#N)cc1OC` tested on TK-10 renal; state its growth.
Solution: 77.1% (inactive)

Exercise: With TK-10 renal as the test system, provide measured growth for this molecule: `Brc1ccc2[nH]cc(-c3nc(-c4c[nH]c5ncccc45)cs3)c2c1`
Solution: 30.1% (inactive)

Exercise: Look up and report measured growth (TK-10 renal) for the following molecule: `C=C(C)[C@@H]1CC[C@]2(C(=O)OC)CC[C@]3(C)[C@H](CC[C@@H]4[C@@](C)(CC/C(N)=N/O)[C@H](C(=C)C)CC[C@]43C)[C@@H]12`
Solution: 105% (inactive)

Exercise: Report its growth with TK-10 renal as the test system: `COc1ccc(-c2nc3c(c(C)nn3-c3ccc(F)cc3)c(=O)[nH]2)cc1`
Solution: 65.8% (inactive)

Exercise: Send back TK-10 renal growth of `O=C(O)c1cccc2c1-c1ccc(Cl)cc1C2` only.
Solution: 103% (inactive)

Exercise: Supply growth measured with TK-10 renal for `COc1ccc(-c2nc(SCC(=O)Nc3ccc(C(C)=O)cc3)[nH]c(=O)c2C#N)cc1` .
Solution: 98.4% (inactive)

Exercise: Under TK-10 renal: report growth of `CCCNc1nc(N(C)O)nc(N(C)O)n1` .
Solution: 65.1% (inactive)

Exercise: Write down the reported growth (system: TK-10 renal) of `C=C(C)[C@@H]1CC[C@]2(C)[C@H](CC=C3[C@@H]4CC(C)(C)CC[C@]4(C=O)CC[C@]32C)[C@@]1(C)CCCN`
Solution: 81.4% (inactive)

Exercise: Would you please give the reported growth of `O=C(NO)c1ccc(Cn2c(=O)n(-c3ccccc3)c(=O)c3ccccc32)cc1` with TK-10 renal?
Solution: 28.1% (inactive)

Exercise: # assay system TK-10 renal: give growth of `COC(=O)[C@]12CC[C@@H](C)[C@H](C)[C@@H]1C1=CC[C@@H]3[C@@]4(C)C[C@@H](OC(C)=O)[C@H](O)[C@@](C)(COC(C)=O)[C@@H]4[C@H](O)C[C@@]3(C)[C@]1(C)CC2`
Solution: -86.5% (active)

Exercise: Provide growth, system TK-10 renal, entry `Cc1cc(C)n(Cc2cc(C(C)(C)C)cc(C(C)(C)C)c2)c(=O)c1C#N`
Solution: 107% (inactive)

Exercise: Give growth for this entry on TK-10 renal: `O=C1NC(=Nc2ccc(S(=O)(=O)Nc3nccs3)cc2)S/C1=C\c1coc2ccccc2c1=O`
Solution: 133% (inactive)

Exercise: Given CCCC1CCCCN1C(=O)OCC(C)C (stereo not drawn) , report its growth on TK-10 renal.
Solution: 107% (inactive)

Exercise: Provide TK-10 renal growth reading for Cc1csc(-c2ccc3c(c2)COC3(CCCN(C)C)c2ccc(F)cc2)c1 (stereo not drawn) .
Solution: 55% (inactive)

Exercise: Check TK-10 renal data and give growth for `COc1ccc2c(c1)c(-c1nc(-c3cn(C)c4ncccc34)cs1)cn2CCCN1CCCCC1` .
Solution: 89.7% (inactive)

Exercise: Param request: growth | system TK-10 renal | item `CC1(C)C(=O)/C(=C\c2ccccn2)C[C@]2(C)[C@H]3CC[C@@H]4[C@@H](C(=O)/C=C/c5ccccn5)CC[C@@]4(C)[C@]3(C)CC[C@@H]12`
Solution: -21.7% (active)

Exercise: Report growth on TK-10 renal for this entry: `COc1ccc(-c2cc(/C=C/C(=O)c3ccc(OC)c(OC)c3)[nH]n2)cc1`
Solution: 31.4% (inactive)

Exercise: State growth (TK-10 renal) of N#CC1=C(N)Oc2c(c(N)nn2-c2ccccc2)C1c1ccc(Cl)cc1 (stereo not drawn) .
Solution: 152% (inactive)

Exercise: Fill in: growth on TK-10 renal, entry N#CC1c2ccccc2-c2ccccc2N1C(=O)c1ccccc1 (stereo not drawn)
Solution: 63.9% (inactive)

Exercise: // fetch growth for `C=C(C)[C@@H]1CC[C@]2(CN)CC[C@]3(C)[C@H](CC[C@@H]4[C@@]5(C)CCC(=O)NC(C)(C)[C@@H]5CC[C@]43C)[C@@H]12` ; system: TK-10 renal
Solution: 114% (inactive)

Exercise: Lab note: record growth of `Cc1nn2c(-c3nc4cc(Cl)c(Cl)cc4[nH]3)c(-c3ccc(F)cc3)nc2s1` tested on TK-10 renal.
Solution: -33.1% (active)
